The entries below come with measured CMV-LACZ in Myotubes, value relative to DMSO values attached.
- Tested on: β-galactosidase in CMV-LacZ C2C12 myotubes
- procedure text: CMV-LacZ secondary screen in C2C12 myotubes (β-Gal stabilizing assay)
- Format: cell-based, mouse
- condition summary: 20 uM; SU9516 analogs, C2C12 CMV-LacZ, N=2
The reply should be a number, written without any unit.

Please supply the value of reported CMV-LACZ in Myotubes, value relative to DMSO for the item "O=C1Nc2ccccc2/C1=C/c1cnc(-c2ccccc2)[nH]1"
2.0788

Further cases:
Report CMV-LACZ in Myotubes, value relative to DMSO for "Cc1ccccc1/C=C1\C(=O)Nc2ccc(F)cc21"
0.8547

Name the recorded CMV-LACZ in Myotubes, value relative to DMSO of the item "Cc1ncc(/C=C2\C(=O)Nc3ccccc32)[nH]1" in your answer.
1.0789

Identify measured CMV-LACZ in Myotubes, value relative to DMSO corresponding to "COc1cc(OC)c(/C=C2/C(=O)Nc3ccccc32)c(OC)c1"
1.0230

Note down CMV-LACZ in Myotubes, value relative to DMSO recorded for O=Nc1c(-c2c(O)[nH]c3ccccc23)[nH]c2ccccc12 [NCGC00015545-07]
0.7010

###

- System: α7 integrin (LacZ reporter in α7LacZ+/− myoblasts)
- procedure text: qHTS of the LOPAC library and MLSMR (online screen, α7LacZ+/− myoblasts)
- condition summary: Mus musculus, Myoblast, read-out: Fit LogAC50 (converted)
property label: EC50 (µM)
Lab book: enter the figure in µM, no units written.

Here are 2 compounds together with their reported answers.
Indicate the recorded EC50 value for this compound: CCCCS(=O)(=O)N1CCCC(C(=O)NCCc2ccccc2)C1 (centres unmarked) [Compound 111]
7.08

Please indicate EC50 recorded for NS(=O)(=O)c1ccc(NC(=O)c2ccc(CNS(=O)(=O)c3cc(C(F)(F)F)ccc3Cl)cc2)cc1 [Compound 207]
10

***
Give the measured EC50 for COc1cc2c(cc1NC(=O)Cc1ccc(C)cc1)oc1ccccc12 [Compound 5]
1.12

State its EC50 for this compound: COc1ccccc1OCC(=O)N/N=C1/C=C(C)CC1 [Compound 185]
10

Supply EC50 value. Item: Cc1cc(NC(=O)c2ccc(Cl)cc2Cl)no1 [Compound 19]
1.41

###

- System: α7 integrin (LacZ reporter in α7+/LacZ myotubes)
- procedure text: Myotube α7 integrin FDG assay (Burkin assay in myotubes, 96-well)
- Format: cell-based, mouse
- condition summary: myotubes, 1 uM
So basically, if Burkin Assay in Myotubes, α7 integrin LacZ reporter signal relative to DMSO comes in under 1 it's Y, and if it's 1 or more it's N.

Solved entries:
Please indicate whether the reported Burkin Assay in Myotubes, α7 integrin LacZ reporter signal relative to DMSO of CCOc1ccccc1NC(=O)c1cccc2c1C(=O)N(C1CCCCC1)C2 [MLS000912726-01] is strictly below 1.
Y

A record lists CC(C(=O)Nc1ccc(C#N)cc1)N(C)CC(=O)Nc1cccc(F)c1 (stereo not drawn) [MLS001033255-01] . Is its Burkin Assay in Myotubes, α7 integrin LacZ reporter signal relative to DMSO below 1?
Y

Burkin Assay in Myotubes, α7 integrin LacZ reporter signal relative to DMSO under 1? Item: C#CC1(O)CCC2C3CCC4=C/C(=N/OCC(=O)NCC(=O)NC(C(=O)O)C(C)C)CC[C@]4(C)C3CC[C@@]21C (stereo partly drawn) [MLS001163859-01]
N

Others:
Say whether its Burkin Assay in Myotubes, α7 integrin LacZ reporter signal relative to DMSO is strictly beneath 1. Entry: C/C(=N\NC(=O)c1cc(C)oc1C)c1ccc2ccccc2c1 [MLS000912258-01]
Y

Would you kindly verify if Burkin Assay in Myotubes, α7 integrin LacZ reporter signal relative to DMSO of Cc1ccccc1NC(=O)NCCCN1CCN(C)CC1 [MLS001197665-01] is strictly less than 1?
N

Is Burkin Assay in Myotubes, α7 integrin LacZ reporter signal relative to DMSO strictly under 1 for the entry Cn1c(O)c(C(C#N)=C2N=c3ccccc3=N2)c2ccccc21 [MLS000536064-01] ?
Y

# TODO verify Burkin Assay in Myotubes, α7 integrin LacZ reporter signal relative to DMSO < 1 strictly for this compound: COc1ccc(N=Nc2ccc(N)nc2N)cc1 [MLS000736846-01]
N

###

- Tested on: β-galactosidase in CMV-LacZ C2C12 myotubes
- procedure text: CMV-LacZ secondary screen in C2C12 myotubes (β-Gal stabilizing assay)
- Format: cell-based, mouse
- condition summary: 40 uM; C2C12 CMV-LacZ myotubes; fold relative to DMSO
Reported CMV-LACZ in Myotubes, signal relative to DMSO values for the following compounds.
// no unit string in output, number only

Consider the worked cases shown below.
Hello, please tell me recorded CMV-LACZ in Myotubes, signal relative to DMSO for this one: "Cc1cccc(Cn2cnc3c(nnn3Cc3ccc(Cl)cc3)c2=O)c1"
1.0500

Please report the measured CMV-LACZ in Myotubes, signal relative to DMSO for Cc1ccc(S(=O)(=O)NC(C)C(=O)NC(C)c2cccs2)cc1 (stereo not drawn)
1.0745

Recall and state the measured CMV-LACZ in Myotubes, signal relative to DMSO for "CCc1nnc(NC(=O)c2ccc(S(=O)(=O)NCC(C)C)cc2)s1" .
0.979

Given CN(CCC1CCCCO1)C(=O)CCc1nnc(CCCCc2ccccc2)o1 (stereo not drawn) , respond with its CMV-LACZ in Myotubes, signal relative to DMSO.
1.0778

Answer with the recorded CMV-LACZ in Myotubes, signal relative to DMSO for the compound listed here: "NS(=O)(=O)c1ccc(NC(=O)CN2CCc3ccccc32)cc1"
1.0200

New cases:
# return recorded CMV-LACZ in Myotubes, signal relative to DMSO for entry "CN1C(=O)N(CC(=O)N2CCN(S(=O)(=O)c3ccc(Cl)s3)CC2)C(=O)C12CCCCC2"
1.0170

Specify measured CMV-LACZ in Myotubes, signal relative to DMSO for OC1(c2ccccc2)C/C(=N\n2cnnc2)C=C1c1ccccc1 (stereo not drawn) .
0.9697

Complete the entry with CMV-LACZ in Myotubes, signal relative to DMSO for "N/C(=N\OC(=O)c1cccc(C(F)(F)F)c1)c1cnccn1"
1.2553

State its CMV-LACZ in Myotubes, signal relative to DMSO for this compound: "CCc1nc2ccccc2c(C(=O)NCc2ccccc2)c1C"
1.1505

###

- Tested on: β-galactosidase in CMV-LacZ C2C12 myotubes
- procedure text: CMV-LacZ secondary screen in C2C12 myotubes (β-Gal stabilizing assay)
- Type: cell-based, mouse
- condition summary: 0.5 uM; C2C12 CMV-LacZ myotubes; fold relative to DMSO
Under this convention, Y denotes CMV-LACZ in Myotubes, signal relative to DMSO strictly below 1 and N denotes CMV-LACZ in Myotubes, signal relative to DMSO at or above 1.

Say whether its CMV-LACZ in Myotubes, signal relative to DMSO is strictly beneath 1. Entry: "CSc1ccc(S(=O)(=O)NCc2ccccc2)cc1"
N

Say whether its CMV-LACZ in Myotubes, signal relative to DMSO is strictly beneath 1. Entry: "Br.COc1ccc(C(=O)CN2CCCCC2)cc1"
Y

Input "Nc1cccc(/C=C/C(=O)O)c1" ; condition: CMV-LACZ in Myotubes, signal relative to DMSO strictly below 1. Does it hold?
Y

CMV-LACZ in Myotubes, signal relative to DMSO under 1? Item: "NC(=O)c1sc2nc3c(cc2c1N)CCC3"
N

Record "Cc1cccc(Sc2nc(-c3ccccc3)ccc2C#N)c1" : is its CMV-LACZ in Myotubes, signal relative to DMSO strictly below 1?
Y

Next:
Problem: For the molecule "O=C(Nc1ccccc1OC(=O)c1ccc(Cl)cc1)c1ccc(Cl)cc1" , is CMV-LACZ in Myotubes, signal relative to DMSO under 1?
Y

Please state whether CMV-LACZ in Myotubes, signal relative to DMSO is below 1 for CCOC(=O)C1(Cc2cccc(Cl)c2)CCCN(C(=O)CCSC)C1 (stereo not shown)
Y

Confirm or reject: CMV-LACZ in Myotubes, signal relative to DMSO of CC(O)CNc1nc2c(c(=O)n(Cc3ccc(Br)cc3)c(=O)n2C)n1C (stereo not shown) lies strictly below 1
N

Quick check: CMV-LACZ in Myotubes, signal relative to DMSO of CCOC(=O)C1=C(CC)Nc2ccccc2N=C1NC(=O)c1ccc(OC)c(S(=O)(=O)N2CCCCC2C)c1 (stereo not shown) under 1?
N

###

- Test system: α7 integrin (LacZ reporter in α7+/LacZ myotubes)
- procedure text: Myotube α7 integrin FDG assay (Burkin assay in myotubes, 96-well)
- Type: cell-based, mouse
- condition summary: myotubes, 20 uM
Label Condition met when Burkin Assay in Myotubes, α7 integrin LacZ reporter signal relative to DMSO is strictly below 0.9; otherwise label Condition not met.

Solved entries:
Burkin Assay in Myotubes, α7 integrin LacZ reporter signal relative to DMSO under 0.9? Item: Cn1c(=O)c2c(nc(Sc3ncnn3CC(=O)NC3CCCCC3)n2C)n(C)c1=O [MLS000663651-01]
Condition not met

Given O=C(N/N=C/c1c[nH]c2ccccc12)c1cc(Cl)ccc1O [MLS001196572-01] , is recorded Burkin Assay in Myotubes, α7 integrin LacZ reporter signal relative to DMSO strictly lower than 0.9?
Condition not met

Check if Burkin Assay in Myotubes, α7 integrin LacZ reporter signal relative to DMSO falls below 0.9 for Cc1cc(C(=O)Nc2cccc3ccccc23)c(C)o1 [MLS001219345-01] .
Condition met

# TODO verify Burkin Assay in Myotubes, α7 integrin LacZ reporter signal relative to DMSO < 0.9 strictly for this compound: Cc1cccc(NCC(=O)N/N=C\c2ccccn2)c1 [MLS000710288-01]
Condition not met

Quick check: Burkin Assay in Myotubes, α7 integrin LacZ reporter signal relative to DMSO of Cc1ccc(S(=O)(=O)N2CN(CC3CCCO3)c3nc4ccccc4nc32)c(C)c1 (stereo not drawn) [MLS001139288-01] under 0.9?
Condition not met

New cases:
is_below(Burkin Assay in Myotubes, α7 integrin LacZ reporter signal relative to DMSO, 0.9) for CC(C)Oc1cccc(C(=O)Nc2ccc(CN3CCOCC3)cc2)c1 [MLS000062431-01] ?
Condition met

Does the reported Burkin Assay in Myotubes, α7 integrin LacZ reporter signal relative to DMSO of Cc1cc([N+](=O)[O-])ccc1NC(=O)C(C)N1CCN(c2ccccn2)CC1 (stereo not drawn) [MLS000764729-01] stay below 0.9?
Condition met

Is it true that Burkin Assay in Myotubes, α7 integrin LacZ reporter signal relative to DMSO reported for COC(=O)c1ccccc1NC(=O)c1cc[n+]([O-])cc1 [MLS001167169-01] is less than 0.9?
Condition not met

Does the reported Burkin Assay in Myotubes, α7 integrin LacZ reporter signal relative to DMSO of the following compound sit strictly below 0.9? Oc1c(Br)cc(Br)cc1CNc1cccc2cccnc12 [MLS001183429-01]
Condition met

State whether 0.9 exceeds Burkin Assay in Myotubes, α7 integrin LacZ reporter signal relative to DMSO recorded for Cc1cccc(Cn2cnc3c(nnn3Cc3ccc(Cl)cc3)c2=O)c1 [MLS000092785-01] .
Condition met

Answer whether the compound O=C1CCC(C(=O)N2CCSCC2)CN1Cc1ccc(Cl)cc1 (stereo not drawn) [MLS001090787-01] has Burkin Assay in Myotubes, α7 integrin LacZ reporter signal relative to DMSO strictly less than 0.9
Condition not met

Threshold test, Burkin Assay in Myotubes, α7 integrin LacZ reporter signal relative to DMSO < 0.9: O=C1CCc2cc(S(=O)(=O)Nc3ccc(C(F)(F)F)cc3)cc3c2N1CC3 [MLS001237320-01]
Condition not met

Please indicate whether the reported Burkin Assay in Myotubes, α7 integrin LacZ reporter signal relative to DMSO of Cc1nc2c(cnn2-c2ccccc2)c(=O)n1/N=C/c1ccccc1 [MLS000860538-01] is strictly below 0.9.
Condition not met
